# Method: Toxicity in fasted Sprague-Dawley rat assessed as mortality rate at 331 mg/kg, IG measured for 14 days
# Type: organism-based
# Run Conditions: in vivo, po, time 14 day

{"columns": ["Molecule Smiles", "Unit Spec", "mortality at 336 h"],
 "data": [
  ["C=C[C@]1(C)C[C@@H](OC(=O)COC(=O)/C=C/c2ccc(N(C)C)cc2)[C@]2(C)[C@H](C)CC[C@]3(CCC(=O)[C@H]32)[C@@H](C)[C@@H]1O", "%", 0]
]}

* * *

# Test system: Acinetobacter baumannii
# Method: Antibacterial activity against Acinetobacter baumannii ATCC 19606 assessed as bacterial growth inhibition incubated for 24 hrs by CLSI based broth microdilution method
# Assay type: functional
Measured Parameter: MIC (µg/mL)

{"columns": ["Molecule Smiles", "Experimental Target", "Measured Parameter", "Qualifier Symbol", "Reported Measurement"],
 "data": [
  ["C=C[C@]1(C)C[C@@H](OC(=O)COC(=O)/C=C/c2ccsc2)[C@]2(C)[C@H](C)CC[C@]3(CCC(=O)[C@H]32)[C@@H](C)[C@@H]1O", "Acinetobacter baumannii", "MIC", "=", 32],
  ["C=C[C@]1(C)C[C@@H](OC(=O)COC(=O)/C=C/c2ccc(C#N)cc2)[C@]2(C)[C@H](C)CC[C@]3(CCC(=O)[C@H]32)[C@@H](C)[C@@H]1O", "Acinetobacter baumannii", "MIC", ">", 128],
  ["C=C[C@]1(C)C[C@@H](OC(=O)COC(=O)/C=C/c2ccc(-c3ccccc3)cc2)[C@]2(C)[C@H](C)CC[C@]3(CCC(=O)[C@H]32)[C@@H](C)[C@@H]1O", "Acinetobacter baumannii", "MIC", ">", 128],
  ["C=C[C@]1(C)C[C@@H](OC(=O)CS[C@@H]2C[C@H]3CC[C@@H](C2)N3C)[C@]2(C)[C@H](C)CC[C@]3(CCC(=O)[C@H]32)[C@@H](C)[C@@H]1O", "Acinetobacter baumannii", "MIC", "=", 16],
  ["C=C[C@]1(C)C[C@@H](OC(=O)COC(=O)/C=C/c2cccc(C(F)(F)F)c2)[C@]2(C)[C@H](C)CC[C@]3(CCC(=O)[C@H]32)[C@@H](C)[C@@H]1O", "Acinetobacter baumannii", "MIC", "=", 128],
  ["C=C[C@]1(C)C[C@@H](OC(=O)COC(=O)/C=C/c2ccc(C(F)(F)F)cc2)[C@]2(C)[C@H](C)CC[C@]3(CCC(=O)[C@H]32)[C@@H](C)[C@@H]1O", "Acinetobacter baumannii", "MIC", ">", 128],
  ["C=C[C@]1(C)C[C@@H](OC(=O)COC(=O)/C=C/c2ccncc2)[C@]2(C)[C@H](C)CC[C@]3(CCC(=O)[C@H]32)[C@@H](C)[C@@H]1O", "Acinetobacter baumannii", "MIC", "=", 64],
  ["C=C[C@]1(C)C[C@@H](OC(=O)COC(=O)/C=C/c2ccc(N(C)C)cc2)[C@]2(C)[C@H](C)CC[C@]3(CCC(=O)[C@H]32)[C@@H](C)[C@@H]1O", "Acinetobacter baumannii", "MIC", "=", 32]
]}
